# System: UO-31
# assay_remarks: NCI tumour cell line growth inhibition, 48 h
Active and inactive are the calls of the source. Rule as the data show it: active = GI50 up to about 1.1 µM and inactive = higher.
Record form. Attribute: GI50. Fill in for each entry.

Return GI50 (reported value) for this molecule: N#CCSc1c(-c2ccccc2)c(=O)n(-c2ccccc2)c(=S)n1-c1ccccc1
> 100 µM (inactive)

Return GI50 (reported value) for this molecule: CC(=O)NC(CCCCNC(=O)N(CCCl)N=O)C(=O)NCc1ccccc1 (stereo not given)
> 100 µM (inactive)

Return GI50 (reported value) for this molecule: CC1(C)CC23C(=O)N(c4ccccc4)C(Nc4ccccc4)=NC2=CC(C#N)=C(C#N)C3O1 (stereo not given)
18.6 µM (inactive)

Return GI50 (reported value) for this molecule: CCC(C)c1cnc(CC(C)C)c(=O)[nH]1 (stereo not given)
> 100 µM (inactive)

Return GI50 (reported value) for this molecule: CN(C)CCOc1ccc(-c2c(Oc3ccc(Cl)cc3)c(=O)oc3ccccc23)cc1
5.43 µM (inactive)

====

# Tested on: TK-10
# assay_remarks: NCI tumour cell line growth inhibition, 48 h
Active and inactive are the calls of the source. No stated cut-off is given here; in the data, active = GI50 up to about 1.1 µM and inactive = higher. Where a SMILES comes first, the peptide text is derived from it. The star is where a group is joined. Cbz = O=C(OCc1ccccc1)*
Just give me one of these, please: YES = active, NO = inactive

GET /call?item= Cc1[nH]c(-c2ccccc2)c(-c2ccc(Cl)cc2)c1C(=O)ONC(=O)c1ccccc1 returns the recorded outcome of this test.
NO

GET /call?item= COc1ccc2c(c1)C(=O)Cc1ccccc1CC2 returns the recorded outcome of this test.
NO

GET /call?item= Cc1nc2cccc([N+](=O)[O-])c2n1CCCN(C)C returns the recorded outcome of this test.
NO

GET /call?item= CC(C)(C)OC(=O)C1CC[C@@H](CC(=O)Oc2ccc([N+](=O)[O-])cc2)N1 (some centres undefined) returns the recorded outcome of this test.
NO

GET /call?item= N#Cc1nc(C(=O)c2ccccc2)oc1N returns the recorded outcome of this test.
NO

GET /call?item= Cn1c(COC(=O)NC2CCCCC2)c(COC(=O)NC2CCCCC2)c2ccc3ccccc3c21 returns the recorded outcome of this test.
NO

GET /call?item= Cc1cc2c(cc1C)[n+]([O-])c(C(=O)/C=C/c1ccccc1[N+](=O)[O-])c(C)[n+]2[O-] returns the recorded outcome of this test.
NO

GET /call?item= CC1C[C@]2(C)C(=O)N(c3ccccc3)C(=N)[C@@H]2N(C)c2ccccc21 (some centres undefined) returns the recorded outcome of this test.
NO

GET /call?item= CC(C)CNc1nc(N)nc(O)c1NC=O returns the recorded outcome of this test.
NO

GET /call?item= Cn1nc(-c2ccccc2NC(=O)C(F)(F)F)c(=O)n(C)c1=S returns the recorded outcome of this test.
NO

GET /call?item= O=C1c2ccccc2C(=O)N1CCN(CCN1C(=O)c2ccccc2C1=O)Cc1ccccc1 returns the recorded outcome of this test.
NO

GET /call?item= COC(=O)C12OCC34C(CC5C(C)C6=CC(=O)OC6=CC5(C)C3C(O)C1O)OC(=O)C(OC(C)=O)C24 (centres undefined) returns the recorded outcome of this test.
NO

GET /call?item= CN(C)CCOc1ccc(-c2c(Oc3ccc(Cl)cc3)c(=O)oc3ccccc23)cc1 returns the recorded outcome of this test.
NO

GET /call?item= CSc1nc(NC2OC(COC(C)=O)C(OC(C)=O)C(OC(C)=O)C2OC(C)=O)c2c(OC(C)=O)c(C)c(=O)oc2n1 (centres undefined) returns the recorded outcome of this test.
NO

GET /call?item= O=C(Nc1ccccc1)OC1OC(COC(=O)c2ccccc2)C(OC(=O)c2ccccc2)C1OS(=O)(=O)c1ccc([N+](=O)[O-])cc1 (centres undefined) returns the recorded outcome of this test.
NO

GET /call?item= Nc1ncnc2nc(N3CCN(CCO)CC3)[nH]c12 returns the recorded outcome of this test.
NO

GET /call?item= O=C1C=C(Sc2ccccc2)c2nccc3c2c1nc1ccccc13 returns the recorded outcome of this test.
NO

GET /call?item= C[N+](C)(C)CC(=O)N/N=C/c1oc(-c2c(O)ccc3ccccc23)c(-c2c(O)ccc3ccccc23)c1[N+](=O)[O-] returns the recorded outcome of this test.
NO

GET /call?item= CN(C)CCCNC(=O)N/N=C/c1ccccc1 returns the recorded outcome of this test.
NO

GET /call?item= CC(=O)n1c2c(c(=O)n1-c1ccccc1)[S+]([O-])CCC2 (centres undefined) returns the recorded outcome of this test.
NO

GET /call?item= C/C=C/C(C#N)(/C=C/c1ccccc1)OP1(=O)OC(c2ccccc2)C(C)N1C (centres undefined) returns the recorded outcome of this test.
NO

GET /call?item= CCOC(=O)c1cn(-c2ccccc2)c(=S)n2c1nc1ccccc12 returns the recorded outcome of this test.
NO

GET /call?item= CCSc1[nH]c(NC(=S)NC(=O)c2ccccc2Cl)c(C(N)=O)c1C(N)=O returns the recorded outcome of this test.
NO

GET /call?item= CC1(C)Oc2ccc3c(=O)c4ccccc4oc3c2C1C(=O)O (centres undefined) returns the recorded outcome of this test.
NO

GET /call?item= CN(C)/C=N\c1nncc2[nH]cnc12 returns the recorded outcome of this test.
NO

GET /call?item= COc1cc(C(C)O)c[n+](CCc2c[nH]c3ccccc23)c1 (centres undefined) returns the recorded outcome of this test.
NO

GET /call?item= Cc1cnccc1/N=N/c1ccc(N(C)C)cc1 returns the recorded outcome of this test.
NO

GET /call?item= CCOC(=O)CCC(NC(=O)CNC(=O)CNC(=O)C(CCC(=O)OCC)NC(=O)C(CCC(=O)OCC)NC(=O)C(CCC(=O)OCC)NC(=O)OCc1ccccc1)C(=O)NC(CCC(=O)OCC)C(=O)NC(CCC(=O)OCC)C(=O)OCC (centres undefined) (Cbz-E(OEt)E(OEt)E(OEt)GGE(OEt)E(OEt)E(OEt)-OEt; configuration not given here) returns the recorded outcome of this test.
NO

GET /call?item= CC(=O)OC1C(COC(=O)c2ccccc2)OC(Nc2ncc(-c3ccc(Br)cc3)s2)C(OC(=O)c2ccccc2)C1OC(=O)c1ccccc1 (centres undefined) returns the recorded outcome of this test.
NO

GET /call?item= O=C(NO)c1ccc([N+](=O)[O-])cc1 returns the recorded outcome of this test.
NO

GET /call?item= CN(C)c1ccc(C2CC(=O)CC(c3ccc(N(C)C)cc3)C23C(=O)NC(=O)NC3=O)cc1 (centres undefined) returns the recorded outcome of this test.
NO

GET /call?item= CSCCC(NC(=O)OCc1ccccc1)P(=O)(O)c1ccccc1 (centres undefined) returns the recorded outcome of this test.
NO

GET /call?item= Cc1ccc(NC(=O)/C(=N/N(C)C)C(C2OC(=O)c3ccccc32)[N+](=O)[O-])cc1 (centres undefined) returns the recorded outcome of this test.
NO

GET /call?item= O=C(NNC(=O)c1ccccc1O)c1cccc(Br)c1 returns the recorded outcome of this test.
NO

GET /call?item= CC(=O)OCCOCNC(=S)N/N=C(\C)c1cccs1 returns the recorded outcome of this test.
NO

GET /call?item= Cc1cc2c(c3oc(C(O)(CO)C4CO4)cc(=O)c13)C(=O)c1c(O)cccc1C2=O (centres undefined) returns the recorded outcome of this test.
YES

GET /call?item= CCc1ccccc1NC(=O)C(=O)C1C(=O)N(c2ccccc2)N=C1N (centres undefined) returns the recorded outcome of this test.
NO

GET /call?item= CC(=O)Nc1ccc(/C=N\N2C(=O)c3ccccc3C2=O)cc1 returns the recorded outcome of this test.
NO

GET /call?item= COC1OC(C)C(NC(=O)OCC(Cl)(Cl)Cl)C2OC(C)(C)OC12 (centres undefined) returns the recorded outcome of this test.
NO
